# measured.on: human NaV subtype, like NaV 1.7 (Homo sapiens)
# assay.details: E-VIPR optical membrane potential assay with electrical stimulation
# Assay type: cell-based
# condition.label: active against one or more sodium channels; assay and NaV subtype not specified for Table 3; read-out: IC50 Binned Activity Data
pIC50: −log10 of the molar value.
readout.type: pIC50

The examples below pair each entry with its known result.
>  <molecule>
CC#CCN1CC(CC)OC2(CCN(C(=O)c3ccc(OC(C)C)c(Cl)c3)CC2)C1 (stereo not shown) [Compound 52]

>  <pIC50>
> 5.70

$$$$
>  <molecule>
COCC1CN(c2ncccn2)CC2(CCN(C(=O)c3ccc(S(=O)(=O)C4CC4)cc3)CC2)O1 (stereo not shown) [Compound 208]

>  <pIC50>
< 5.30

$$$$
>  <molecule>
COCC1CN(c2ncccn2)CC2(CCN(C(=O)c3ccc(OC)c(C(F)(F)F)c3)CC2)O1 (stereo not shown) [Compound 284]

>  <pIC50>
> 5.70

$$$$
>  <molecule>
Cc1cc(C(=O)N2CCC3(CC2)CN(Cc2ccccc2)CC(CO)O3)ccc1OC(C)C (stereo not shown) [Compound 82]

>  <pIC50>
5.30 to 5.70

$$$$
>  <molecule>
CCN1CC(c2ncc(C)s2)OC2(CCN(C(=O)c3ccc(OC(C)C)c(C)c3)CC2)C1 (stereo not shown) [Compound 250]

>  <pIC50>
> 5.70

$$$$
>  <molecule>
Cc1cnc(C2CN(CC(F)(F)F)CC3(CCN(C(=O)c4ccc(OC(C)C)c(C)c4)CC3)O2)s1 (stereo not shown) [Compound 196]

>  <pIC50>
> 5.70

$$$$
>  <molecule>
COCC1CN(c2ncccn2)CC2(CCN(C(=O)c3ccc(C(O)C(C)C)cc3)CC2)O1 (stereo not shown) [Compound 197]

>  <pIC50>
5.30 to 5.70

$$$$
>  <molecule>
Cc1cc(C(=O)N2CCC3(CC2)CN(CCO)CC(c2ccccc2)O3)ccc1OC(C)C (stereo not shown) [Compound 25]

>  <pIC50>
5.30 to 5.70

$$$$
>  <molecule>
Cc1cc(C(=O)N2CCC3(CC2)CN(CC(F)(F)F)CC(c2ccccc2)O3)ccc1S(=O)(=O)C(C)C (stereo not shown) [Compound 200]

>  <pIC50>
> 5.70

$$$$
>  <molecule>
COCC1CN(c2ccc(C)cn2)CC2(CCN(C(=O)c3ccc(OC(C)C)c(C)c3)CC2)O1 (stereo not shown) [Compound 75]

>  <pIC50>
> 5.70

$$$$

// each listed molecule needs a value for pIC50
1. COCC1CN(c2nccs2)CC2(CCN(C(=O)c3ccc(OC(C)C)c(C)c3)CC2)O1 (stereo not shown) [Compound 180]
2. COCC1CN(CCC(C)C)CC2(CCN(C(=O)c3ccc(OC(C)C)c(C)c3)CC2)O1 (stereo not shown) [Compound 147]

1. > 5.70
2. > 5.70

Below is a list of molecules. For each, state its recorded pIC50.
1. Cc1cc(C(=O)N2CCC3(CC2)CN(CC(F)(F)F)CC(c2ccccc2)O3)ccc1C(C)(C)O (stereo not shown) [Compound 98]
2. Cc1cc(C(=O)N2CCC3(CC2)CN(CC(F)F)CC(c2ncco2)O3)ccc1OC(C)C (stereo not shown) [Compound 209]
3. CCC1CN(c2ncccn2)CC2(CCN(C(=O)c3ccc(OC(C)C)c(C)c3)CC2)O1 (stereo not shown) [Compound 236]
4. COCC1CN(Cc2ccccc2)CC2(CCN(C(=O)c3ccc(OC(C)C)c(C)c3)CC2)O1 (stereo not shown) [Compound 169]
5. COCC1CN(c2cccc(C(F)(F)F)c2)CC2(CCN(C(=O)c3ccc(OC(C)C)c(C)c3)CC2)O1 (stereo not shown) [Compound 258]

> 5.70
> 5.70
> 5.70
> 5.70
> 5.70

List pIC50 for every entry below, keeping the order given.
1. CCCN1CC(COC)OC2(CCN(C(=O)c3ccc(OC(C)C)c(C)c3)CC2)C1 (stereo not shown) [Compound 205]
2. COCC1CN(c2cccc(C(F)(F)F)c2)CC2(CCN(C(=O)c3ccc(OCC(C)(C)O)c(C)c3)CC2)O1 (stereo not shown) [Compound 225]
3. COc1cc(C(=O)N2CCC3(CC2)CN(CC(F)(F)F)CC(c2ccccc2)O3)ccc1S(C)(=O)=O (stereo not shown) [Compound 172]
4. CCN1CC2(CCN(C(=O)c3ccc(OC(C)C)c(C)c3)CC2)OCC1c1ccccc1 (stereo not shown) [Compound 10]

1. > 5.70
2. > 5.70
3. < 5.30
4. > 5.70

###

# measured.on: human NaV subtype, like NaV 1.7 (Homo sapiens)
# assay.details: E-VIPR optical membrane potential assay with electrical stimulation
# Format: cell-based
# condition.label: active against one or more sodium channels; assay and NaV subtype not specified for Table 3; read-out: IC50 Binned Activity Data
pIC50: −log10 of the molar value.
Assignment: determine reported pIC50 for the given compounds.

Worked set:
>  <compound>
COCC1CN(c2ncccn2)CC2(CCN(C(=O)c3ccccc3OC(F)F)CC2)O1 (stereo not shown) [Compound 164]

>  <pIC50>
< 5.30

$$$$
>  <compound>
CCC1CN(CC(F)(F)F)CC2(CCN(C(=O)c3ccc(OC(C)C)c(C)c3)CC2)O1 (stereo not shown) [Compound 233]

>  <pIC50>
> 5.70

$$$$
>  <compound>
COCC1CN(Cc2ccccc2F)CC2(CCN(C(=O)c3ccc(OC(C)C)c(C)c3)CC2)O1 (stereo not shown) [Compound 102]

>  <pIC50>
> 5.70

$$$$

We now examine a further compound.
// pIC50 (human NaV subtype, like NaV 1.7 (Homo sapiens)) for COCC1CN(Cc2cc(C)on2)CC2(CCN(C(=O)c3ccc(OC(C)C)c(C)c3)CC2)O1 (stereo not shown) [Compound 132] = 5.30 to 5.70

###

# measured.on: human NaV subtype, like NaV 1.7 (Homo sapiens)
# assay.details: E-VIPR optical membrane potential assay with electrical stimulation
# Type: cell-based
# condition.label: active against one or more sodium channels; assay and NaV subtype not specified for Table 3; read-out: IC50 Binned Activity Data
pIC50: −log10 of the molar value.
Assignment: determine reported pIC50 for the given compounds.

Some solved cases for reference:
>  <compound>
CC#CCN1CC(COC)OC2(CCN(C(=O)c3ccc(OC(C)C)c(C)c3)CC2)C1 (centres unmarked)

>  <pIC50>
> 5.70

$$$$
>  <compound>
Cc1cc(C(=O)N2CCC3(CC2)CN(CC(F)F)CC(c2[nH]ncc2C)O3)ccc1OC(C)C (centres unmarked)

>  <pIC50>
> 5.70

$$$$
>  <compound>
COCC1CN(CC(=O)C2CC2)CC2(CCN(C(=O)c3ccc(OC(C)C)c(C)c3)CC2)O1 (centres unmarked)

>  <pIC50>
5.30 to 5.70

$$$$
>  <compound>
Cc1cnc(C2CN(C(C)(C)C)CC3(CCN(C(=O)c4ccc(OC(C)C)c(F)c4)CC3)O2)o1 (centres unmarked)

>  <pIC50>
5.30 to 5.70

$$$$
>  <compound>
COCCOc1ccc(C(=O)N2CCC3(CC2)CN(CC(F)(F)F)CC(c2ccccc2)O3)cc1OC (centres unmarked)

>  <pIC50>
> 5.70

$$$$
>  <compound>
O=C(c1ccc(S(=O)(=O)NC2CC2)cc1)N1CCC2(CC1)CN(CC(F)F)CC(c1ccc(F)cc1)O2 (centres unmarked)

>  <pIC50>
5.30 to 5.70

$$$$

Could I get pIC50 for every one of these entries?
1. Cc1nc(C(=O)N2CCC3(CC2)CN(CC(F)F)CC(c2ccccc2)O3)ccc1OC(C)C (centres unmarked)
2. COc1cc(C(=O)N2CCC3(CC2)CN(CC(F)(F)F)CC(c2ccccc2)O3)ccc1OC(C)C (centres unmarked)

1. > 5.70
2. > 5.70

###

# measured.on: human NaV subtype, like NaV 1.7 (Homo sapiens, UniProt Q15858)
# Sequence (Q15858 whole entry): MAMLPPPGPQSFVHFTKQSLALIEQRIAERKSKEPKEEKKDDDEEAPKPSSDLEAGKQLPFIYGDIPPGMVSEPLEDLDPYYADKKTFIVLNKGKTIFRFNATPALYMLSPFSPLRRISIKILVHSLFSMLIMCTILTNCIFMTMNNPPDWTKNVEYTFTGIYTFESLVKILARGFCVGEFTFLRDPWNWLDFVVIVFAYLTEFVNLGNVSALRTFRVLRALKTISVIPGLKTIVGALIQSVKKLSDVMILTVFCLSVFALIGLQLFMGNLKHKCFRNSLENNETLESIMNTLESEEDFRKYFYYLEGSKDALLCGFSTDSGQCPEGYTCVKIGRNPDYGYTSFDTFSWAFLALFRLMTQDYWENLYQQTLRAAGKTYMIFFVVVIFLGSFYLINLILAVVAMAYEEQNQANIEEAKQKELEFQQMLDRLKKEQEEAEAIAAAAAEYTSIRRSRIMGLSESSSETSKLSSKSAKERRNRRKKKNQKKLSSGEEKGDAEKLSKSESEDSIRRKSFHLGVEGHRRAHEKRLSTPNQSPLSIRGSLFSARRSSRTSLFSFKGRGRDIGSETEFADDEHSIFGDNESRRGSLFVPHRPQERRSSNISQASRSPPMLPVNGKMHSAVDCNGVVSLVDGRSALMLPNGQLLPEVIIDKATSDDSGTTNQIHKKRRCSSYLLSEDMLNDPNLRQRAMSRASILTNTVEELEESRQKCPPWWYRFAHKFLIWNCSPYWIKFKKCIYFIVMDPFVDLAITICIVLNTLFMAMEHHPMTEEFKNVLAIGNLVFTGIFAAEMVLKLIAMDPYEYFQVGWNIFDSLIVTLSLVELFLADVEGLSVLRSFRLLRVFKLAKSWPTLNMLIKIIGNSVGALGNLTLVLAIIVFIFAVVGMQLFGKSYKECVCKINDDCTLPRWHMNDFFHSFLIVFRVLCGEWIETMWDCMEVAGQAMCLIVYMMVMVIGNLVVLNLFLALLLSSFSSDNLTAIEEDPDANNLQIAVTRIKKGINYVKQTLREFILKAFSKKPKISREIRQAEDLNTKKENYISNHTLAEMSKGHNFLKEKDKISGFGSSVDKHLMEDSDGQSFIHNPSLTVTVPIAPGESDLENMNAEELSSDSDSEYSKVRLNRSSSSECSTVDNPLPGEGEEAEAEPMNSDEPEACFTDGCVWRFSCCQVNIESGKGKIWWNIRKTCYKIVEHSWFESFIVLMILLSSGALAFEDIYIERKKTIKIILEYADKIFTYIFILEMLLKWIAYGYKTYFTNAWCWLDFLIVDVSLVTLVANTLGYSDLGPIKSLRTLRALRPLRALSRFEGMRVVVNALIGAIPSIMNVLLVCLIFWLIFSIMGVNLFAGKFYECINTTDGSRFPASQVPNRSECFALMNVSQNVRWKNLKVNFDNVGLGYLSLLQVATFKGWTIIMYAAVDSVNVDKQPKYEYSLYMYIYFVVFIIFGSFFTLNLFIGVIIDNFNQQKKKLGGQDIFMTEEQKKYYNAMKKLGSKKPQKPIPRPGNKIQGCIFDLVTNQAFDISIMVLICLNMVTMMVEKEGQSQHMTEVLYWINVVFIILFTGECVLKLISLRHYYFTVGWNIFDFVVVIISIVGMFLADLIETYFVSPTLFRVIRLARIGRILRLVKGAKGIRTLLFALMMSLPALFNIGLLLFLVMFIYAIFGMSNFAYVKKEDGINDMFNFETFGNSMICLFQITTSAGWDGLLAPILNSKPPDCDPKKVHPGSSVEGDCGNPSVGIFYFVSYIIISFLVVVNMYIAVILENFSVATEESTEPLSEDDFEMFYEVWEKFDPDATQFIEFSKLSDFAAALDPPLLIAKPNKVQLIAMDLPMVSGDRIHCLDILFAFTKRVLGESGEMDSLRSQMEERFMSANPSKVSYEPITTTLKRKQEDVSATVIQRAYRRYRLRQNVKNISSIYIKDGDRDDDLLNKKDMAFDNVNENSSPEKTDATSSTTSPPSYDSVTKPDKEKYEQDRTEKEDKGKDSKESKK
# assay.details: E-VIPR optical membrane potential assay with electrical stimulation
# Type: cell-based
# condition.label: active against one or more sodium channels; assay and NaV subtype not specified for Table 3; read-out: IC50 Binned Activity Data
pIC50: −log10 of the molar value.
Please respond with reported pIC50 for every item in the list.

>  <compound>
Cc1cc(C(=O)N2CCC3(CC2)CN(CC(F)(F)F)CC(c2ccccc2)O3)ccc1OCC(C)(C)O (stereo not shown) [Compound 138]

>  <measured.on>
human NaV subtype, like NaV 1.7 (Homo sapiens, UniProt Q15858)

>  <readout.type>
pIC50

>  <value.reported>
> 5.70

$$$$
>  <compound>
Cc1cc(C(=O)N2CCC3(CC2)CN(CC#N)CC(c2ccccc2)O3)ccc1C(C)(C)O (stereo not shown) [Compound 68]

>  <measured.on>
human NaV subtype, like NaV 1.7 (Homo sapiens, UniProt Q15858)

>  <readout.type>
pIC50

>  <value.reported>
5.30 to 5.70

$$$$
>  <compound>
Cc1cccc(C2CN(CC(F)F)CC3(CCN(C(=O)c4ccc(OC(C)C)c(C)c4)CC3)O2)n1 (stereo not shown) [Compound 37]

>  <measured.on>
human NaV subtype, like NaV 1.7 (Homo sapiens, UniProt Q15858)

>  <readout.type>
pIC50

>  <value.reported>
> 5.70

$$$$

Go through the items and report each one's pIC50.
1. CC(C)Oc1ccc(C(=O)N2CCC3(CC2)CN(CC(F)F)CC(c2ncc(C(C)(C)C)o2)O3)cc1F (stereo not shown) [Compound 137]
2. COc1cc(C(=O)N2CCC3(CC2)CN(CC(F)F)CC(c2ccccc2)O3)ccc1C(C)(C)O (stereo not shown) [Compound 224]
3. COCC1CN(CC(F)(F)F)CC2(CCN(C(=O)c3ccc(OC(C)C)c(C)c3)CC2)O1 (stereo not shown) [Compound 260]
4. COCC1CN(C(C)(C)C)CC2(CCN(C(=O)c3ccc(OC(C)C)c(C)c3)CC2)O1 (stereo not shown) [Compound 160]

1: > 5.70; 2: > 5.70; 3: > 5.70; 4: 5.30 to 5.70

Attribution: patent US9181273B2
